Each recorded value in this set is attributed to patent US20080318938A1.

target: SST1 (Homo sapiens, UniProt P30872)
Sequence (P30872 whole entry, species assumed): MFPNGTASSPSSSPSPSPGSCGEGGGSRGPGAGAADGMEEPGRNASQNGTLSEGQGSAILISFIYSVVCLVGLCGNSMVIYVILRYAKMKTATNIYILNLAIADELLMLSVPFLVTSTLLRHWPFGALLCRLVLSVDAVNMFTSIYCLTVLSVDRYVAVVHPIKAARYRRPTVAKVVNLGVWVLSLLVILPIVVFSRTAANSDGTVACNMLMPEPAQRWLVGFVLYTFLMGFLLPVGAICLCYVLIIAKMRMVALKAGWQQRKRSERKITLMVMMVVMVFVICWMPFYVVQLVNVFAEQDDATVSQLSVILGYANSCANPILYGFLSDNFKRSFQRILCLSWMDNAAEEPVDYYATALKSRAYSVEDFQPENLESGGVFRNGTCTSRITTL
MEASURED_PARAMETER: pIC50
One number for each entry, as −log10 of the molar value.

IN: Need pIC50 of CN1CCC[C@H]1CCNC(=O)c1cn2c3c(c(N4CCC(c5cnccn5)C4)c(F)cc3c1=O)Oc1cc3ccccc3cc1-2 (stereo partly shown) , thanks.
OUT: 5.55

---

system: SF-295; experiment: Inhibition of cell proliferation (MTT); format: cell-based; settings: Homo sapiens; SF-295, CNS; 48 hours
MEASURED_PARAMETER: pEC50
Numbers only, as −log10 of the molar value.

IN: What value of pEC50 on SF-295 does CN1CCC[C@H]1CCNC(=O)c1cn2c3c(c(N4CCC(c5cnccn5)C4)c(F)cc3c1=O)Oc1cc3ccccc3cc1-2 (stereo partly shown) [TA1-1B] have?
OUT: 5.37
